Recorded measurements of protein stability index, one per entry
# Tested on: Saccharomyces cerevisiae;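 also: PSI is a weighted mean of sequencing reads over stability bins, variants kept only with over 10 reads, mCherry proximal and sfGFP distal, peptide attached via GGGS linker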
# assayComment: protein stability index of tFT-peptide fusion (C-terminal peptide) (PSI (0-1 scale)); higher = more stable (slower turnover)
# conditionInfo: genetic background: das1 deletion; temperature: 30 C
quantity: protein stability index

> print(dat)
    sequenceentry                 quantity  resultvalue
 1   GVQFRRPLIPIY  protein stability index        0.358
 2   AYSVIPSLALLP  protein stability index        0.631
 3   CMIACYALLRLL  protein stability index        0.346
 4   AGLTLLWPLCLL  protein stability index        0.277
 5   RRLRPQTVAFLS  protein stability index        0.676
 6   GLFAVWVVGVWC  protein stability index        0.139
 7   ISLSSLYVVMYV  protein stability index        0.227
 8   FVLLSVCFFGCL  protein stability index        0.336
 9   FTNLDYTKEKNN  protein stability index        0.623
10   FIRLTFLRLSCI  protein stability index         0.51
